experiment: Exposure (AUC) corresponding to dose; assay type: in vivo, human; conditions: human, in vivo; 1000 mg dose
valueType: AUC (ng·h/mL)
// note: answer is a bare numeric in ng·h/mL

// AUC lookup, key: CC[C@@H]1C[C@]1(NC(=O)[C@@H]1C[C@@H](Oc2cc(-c3csc(NC(C)C)n3)nc3c(Cl)c(OCCN4CCOCC4)ccc23)CN1C(=O)[C@@H](NC(=O)O[C@@H]1C[C@@H]2C[C@@H]2C1)C(C)(C)C)C(=O)O 48400
